B1: SPDEF (parent)
chain: YPEDSSWAAKAPGASSREEPPEEP

# Variants of: B1
# test-description: protein stability index of a GFP-peptide fusion (GPS, HEK-293T) (PSI 1-6); higher = more stable;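 also: lentivirally expressed fusions sorted by FACS into six bins by GFP to DsRed ratio, PSI derived from sequencing read proportions per bin multiplied by bin number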
# experimental-setup: c terminus: a fixed tail appended
property: protein stability index
API note: the answer field is a bare number with no unit suffix.

variant-code: E3W
protein stability index: 2.18

variant-code: W7M
protein stability index: 4.42

variant-code: E23C
protein stability index: 4.3

variant-code: S6V
protein stability index: 2.94

variant-code: K10F
protein stability index: 2.79

variant-code: S15I
protein stability index: 4.11

variant-code: A11F
protein stability index: 3.71

variant-code: A9Q
protein stability index: 4.04

variant-code: S5V
protein stability index: 4.71

variant-code: W7L
protein stability index: 5.68

Qu. What does the record list as protein stability index for E19K ?
Ans. 3.91

Qu. // next record E3P
Ans. 3.15

Qu. // next record A14Q
Ans. 4.08

Qu. // next record E22P
Ans. 3.06
